tested on: NF-κB pathway, THP1-Dual™ cells; experiment: STING reporter assay in THP1-Dual cells, NF-κB pathway (SEAP, QUANTI-Blue); format: cell-based, human; details: Homo sapiens, THP1-Dual, 20 h, THP1-Dual cells, 10% human plasma, 20 hours; SEAP; 100% activation = 100 μM cGAMP; read-out: NFkB (EC50 μM)
measuredEndpoint: EC50 (µM)

Here's what some known entries look like.
* COC(=O)c1cc(C)cc2c(Cl)c(CNC(=O)c3cnn4cccnc34)oc12 | 0.28
* Cc1cc(CC(=O)OCC(F)(F)F)c2oc(CNC(=O)c3cnn4cccnc34)cc2c1 | 5.5
* COC(=O)c1cccc2cc(Cn3cnc4ccncc4c3=O)oc12 | 3.1

(A) Cc1cc(C(=O)NO)c2oc(CNC(=O)c3cnn4cccnc34)c(Cl)c2c1
(B) O=C(OCC(F)(F)F)c1cc(Cl)cc2cc(CN3CCc4ccncc4C3=O)oc12
Q: Thinking about recorded EC50 values, which is higher, A or B ? Please reply using the label of the selected record.
Ans: A

(1) CSC(=O)c1cc(F)cc2c(Cl)c(CNC(=O)c3cnn4cccnc34)oc12
(2) O=C(Oc1ccccc1)c1cc(Cl)cc2cc(CNC(=O)c3cnn4cccnc34)oc12
Q: Between 1 and 2 , which one has the lower reported EC50 value? Please reply using the label of the selected record.
Ans: 1

* * *

test system: NF-κB pathway, THP1-Dual™ cells; assay: STING reporter assay in THP1-Dual cells, NF-κB pathway (SEAP, QUANTI-Blue); format: cell-based, human; conditions: Homo sapiens, THP1-Dual, 20 h, THP1-Dual cells, 10% human plasma, 20 hours; SEAP; 100% activation = 100 μM cGAMP; read-out: NFkB (EC50 μM)
measuredEndpoint: EC50 (µM)

* COC(=O)c1ccc(C)c2cc(CN3Cc4ccncc4C3=O)oc12 | 31
* O=C(OCC(F)(F)F)c1cccc2c(Cl)c(CNC(=O)c3cnn4cccnc34)oc12 | 0.62
* COc1cc(C(=O)OC(OC)C(F)(F)F)c2oc(CNC(=O)c3cnn4cccnc34)cc2c1 (racemic) | 14
* COC(=O)c1cc(Cl)cc2c(Cl)c(CNC(=O)c3cnn4cccnc34)oc12 | 0.26
* O=C(OCCO)c1cccc2cc(CN3CCc4ccncc4C3=O)oc12 | 31

(A) C[C@@H](OC(=O)c1cc(Cl)cc2c(Cl)c(CNC(=O)c3cnn4cccnc34)oc12)C(F)(F)F
(B) O=C(OCC(F)(F)F)c1cccc2cc(CN3Cc4ccncc4C3=O)oc12
(C) O=C(Cc1cc(F)cc2cc(CNC(=O)c3cnn4cccnc34)oc12)OCC(F)(F)F
(D) Cc1cc(C(=O)O)c2oc(C(C)NC(=O)c3cnn4cccnc34)cc2c1 (racemic)
Q: Order each entry by recorded EC50, climbing from the minimum. Record the ranking as a list of labels in the requested order.
Ans: A, C, B, D

* * *

Test system: NF-κB pathway, THP1-Dual™ cells
Assay: STING reporter assay in THP1-Dual cells, NF-κB pathway (SEAP, QUANTI-Blue)
Type: cell-based, human
Details: Homo sapiens, THP1-Dual, 20 h, THP1-Dual cells, 10% human plasma, 20 hours; SEAP; 100% activation = 100 μM cGAMP; read-out: NFkB (EC50 μM)
Description: THP1-Dual™ cells were derived from the human THP-1 monocyte cell line by stable integration of two inducible reporter constructs. […] Both reporter proteins are readily measurable in the cell culture supernatant when using QUANTI-Blue™, a SEAP detection reagent, and QUANTI-Luc™, a luciferase detection reagent. […] Plates were read on the Envision (Perkin Elmer) at 620 nm wavelength (OD620). […]
measuredEndpoint: EC50 (µM)

• COC(=O)c1ccc(OC)c2cc(CNC(=O)c3cnn4cccnc34)oc12 = 16
• CSC(=O)c1cc(F)cc2cc(CN3CCc4ccncc4C3=O)oc12 = 3.7

(a) O=C(OC1CC(F)(F)C1)c1cc(F)cc2cc(CNC(=O)c3cnn4cccnc34)oc12
(b) COC(=O)c1cccc2c(Cl)c(CN3CCc4ccncc4C3=O)oc12
Q: Thinking about recorded EC50 values, which is higher, a or b ? Please reply using the label of the selected record.
Ans: b

(I) COC(=O)c1cccc2cc(CN3Cc4cccnc4C3=O)oc12
(II) Cc1cc(C(=O)OC2CC(F)(F)C2)c2oc(CNC(=O)c3cnn4cccnc34)c(Cl)c2c1
(III) O=C(SCC(F)(F)F)c1cc(F)cc2cc(CNC(=O)c3cnn4cccnc34)oc12
(IV) CCOc1ncncc1C(=O)NCc1cc2cc(C)cc(C(=O)OC)c2o1
Q: Order each entry by recorded EC50, climbing from the minimum. Record the ranking as a list of labels in the requested order.
Ans: II, III, IV, I
(II: 0.58 µM, III: 1.4 µM, IV: 16 µM, I: 98 µM)

* * *

test system: NF-κB pathway, THP1-Dual™ cells; assay: STING reporter assay in THP1-Dual cells, NF-κB pathway (SEAP, QUANTI-Blue); type: cell-based, human; conditions: Homo sapiens, THP1-Dual, 20 h, THP1-Dual cells, 10% human plasma, 20 hours; SEAP; 100% activation = 100 μM cGAMP; read-out: NFkB (EC50 μM)
measuredEndpoint: EC50 (µM)

Here's what some known entries look like.
• CSC(=O)c1cc(Cl)cc2cc(CNC(=O)c3cnn4cccnc34)oc12 = 1.9
• CCOC(=O)OC(C)OC(=O)c1cc(Cl)cc2cc(CNC(=O)c3cnn4cccnc34)oc12 (racemic) = 0.82
• CCOC(=O)c1cccc2cc(CN3CCc4ccncc4C3=O)oc12 = 9.9
• Cc1cc(C(=O)OC(CF)CF)c2oc(CNC(=O)c3cnn4cccnc34)c(Cl)c2c1 = 0.52
• COC(=O)c1cc(C)cc2c(C)c(CNC(=O)c3cnn4cccnc34)oc12 = 0.54

(A) CCOC(OC(=O)c1cccc2cc(CN3CCc4ccncc4C3=O)oc12)C(F)(F)F (racemic)
(B) O=C(OC1CC(F)(F)C1)c1cc(Cl)cc2cc(CNC(=O)c3cnn4cccnc34)oc12
(C) CSC(=O)c1cc(Cl)cc2c(Cl)c(CNC(=O)c3cnn4cccnc34)oc12
Q: Order each entry by recorded EC50, climbing from the minimum. Record the ranking as a list of labels in the requested order.
Ans: C, B, A

(I) Cc1cc(C(=O)O[C@@H](C)C(F)(F)F)c2oc(C(C)NC(=O)c3cnn4cccnc34)cc2c1 (stereo partly drawn)
(II) CC(C)OC(=O)c1ccc(F)c2cc(CNC(=O)c3cnn4cccnc34)oc12
Q: Between I and II , which one has the lower reported EC50 value? Please reply using the label of the selected record.
Ans: II

(P) CSC(=O)c1cc(C)cc2cc(CNC(=O)c3cnn4cccnc34)oc12
(Q) COC(=O)c1cc(C)cc2c(Cl)c(C(C)NC(=O)c3cnn4cccnc34)oc12 (single isomer, unassigned)
Q: Thinking about recorded EC50 values, which is higher, P or Q ? Please reply using the label of the selected record.
Ans: Q
(Q: 3.2 µM, P: 0.61 µM)

(I) COC(=O)c1cccc2cc(CNC(=O)c3cncc4cccnc34)oc12
(II) COC(=O)c1cc(C)cc2cc(CN3Cc4ccncc4C3=O)oc12
Q: Between I and II , which one has the lower reported EC50 value? Please reply using the label of the selected record.
Ans: I

* * *

test system: NF-κB pathway, THP1-Dual™ cells; assay: STING reporter assay in THP1-Dual cells, NF-κB pathway (SEAP, QUANTI-Blue); type: cell-based, human; conditions: Homo sapiens, THP1-Dual, 20 h, THP1-Dual cells, 10% human plasma, 20 hours; SEAP; 100% activation = 100 μM cGAMP; read-out: NFkB (EC50 μM)
measuredEndpoint: EC50 (µM)

* COC(=O)c1cc(F)cc2cc(CN3Cc4ncncc4C3=O)oc12 | 13

(I) COC(OC(=O)c1cc(C(F)(F)F)cc2cc(CNC(=O)c3cnn4cccnc34)oc12)C(F)(F)F (single isomer, unassigned)
(II) CC(OC(=O)c1cc(F)c(F)c2cc(CNC(=O)c3cnn4cccnc34)oc12)C(F)(F)F (stereo not shown)
Q: Thinking about recorded EC50 values, which is higher, I or II ? Please reply using the label of the selected record.
Ans: II
(II: 4.2 µM, I: 2.4 µM)

(1) O=C(OC(CF)CF)c1cc(F)cc2cc(CNC(=O)c3cnn4cccnc34)oc12
(2) COC(=O)c1cccc2cc(CNC(=O)c3cncnc3OC)oc12
(3) COC(=O)c1cc(Cl)cc2cc(Cn3ccc4ccncc4c3=O)oc12
(4) Cc1ccnc2c(C(=O)NCc3cc4cccc(C(=O)OCC(F)(F)F)c4o3)cnn12
Q: # desc sort on EC50 across 4 molecules Record the ranking as a list of labels in the requested order.
Ans: 4, 2, 3, 1
